Entry source: PubChem BioAssay (Tox21)

# Assay procedure: qHTS assay to identify small molecule agonists of the androgen receptor (AR) signaling pathway in the presence of an antagonist - cell viability counter screen (AID 1259379);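 further: MDA-kb2 human breast cancer cells carrying an MMTV luciferase reporter; nearly all actives have a fitted effect of over 25% in size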
# Condition: MDA-kb2 viability, CellTiter-Fluor, 16 h; series mostly up to 92.4 µM
Results filed as inconclusive are left out. Activity calls are given as the source filed them. The call rests on the fitted dose curve; in most records, active means well fitted cell-killing curve with a large enough effect in the repeat runs; inconclusive means weak or mixed curves, or effect the other way; inactive means flat fitted curve, though single readings scatter.
// classify into active, inactive

Data request: Look up the recorded call for NC(=O)c1ccc(N)nc1 in this test.
Data returned: inactive

Next:
Data request: Look up the recorded call for C[C@H]1O[C@@H](O[C@H]2[C@@H](O)C[C@H](O[C@H]3[C@@H](O)C[C@H](O[C@H]4CC[C@@]5(C)[C@H](CC[C@@H]6[C@@H]5CC[C@]5(C)[C@@H](C7=CC(=O)OC7)CC[C@]65O)C4)O[C@@H]3C)O[C@@H]2C)C[C@H](O)[C@@H]1O in this test.
Data returned: inactive

Data request: Look up the recorded call for O=C(CBr)c1ccc(O)cc1 in this test.
Data returned: inactive

Data request: Look up the recorded call for CC1CCC(C(C)C)C(OC(=O)c2ccccc2N)C1 (configuration not stated) in this test.
Data returned: inactive

Data request: Look up the recorded call for CC(=O)Nc1ccc2c(c1)Cc1ccccc1-2 in this test.
Data returned: inactive

Data request: Look up the recorded call for CC(=O)O[C@H]1CC[C@@]2(C)C(=CC[C@@H]3[C@@H]2CC[C@]2(C)C(=O)CC[C@@H]32)C1 in this test.
Data returned: inactive

Data request: Look up the recorded call for N#CC(Cl)Cl in this test.
Data returned: inactive

Data request: Look up the recorded call for CC(C)CBr in this test.
Data returned: inactive

Data request: Look up the recorded call for CC(C)CC(C)(c1ccc(O)cc1)c1ccc(O)cc1 in this test.
Data returned: inactive

Data request: Look up the recorded call for C[C@@H](Oc1ccc(Cl)cc1Cl)C(=O)O in this test.
Data returned: inactive

Data request: Look up the recorded call for CC(=[OH+])/C=C(/C)[O-].CC(=[OH+])/C=C(\C)[O-].CC(=[OH+])/C=C(\C)[O-].[Fe] in this test.
Data returned: inactive

Data request: Look up the recorded call for Clc1ccc(C(c2ccccc2Cl)C(Cl)(Cl)Cl)cc1 (configuration not stated) in this test.
Data returned: inactive

Data request: Look up the recorded call for C=COCCCl in this test.
Data returned: inactive

---

# Assay procedure: qHTS RealTime-Glo MT Cell Viability Assay in HepG2 cells - 32 hour (AID 1224877); further: nearly all actives have a fitted effect of over 55% in size
# Condition: RealTime-Glo luminescence; series mostly up to 76.8 µM
Results filed as inconclusive are left out. The source made the active and inactive calls. Calls follow the shape of the dose curve; as a rule, active = well fitted cell-killing curve with a large enough effect in the repeat runs; inconclusive = weak or mixed curves; inactive = flat fitted curve, though single readings scatter.
// classify into Y (active), N (inactive)

Solved entries (count: 3):
Data request: Look up the recorded call for C[C@H]1O[C@@H](O[C@H]2[C@@H](O)C[C@H](O[C@H]3[C@@H](O)C[C@H](O[C@H]4CC[C@@]5(C)[C@H](CC[C@@H]6[C@@H]5CC[C@]5(C)[C@@H](C7=CC(=O)OC7)CC[C@]65O)C4)O[C@@H]3C)O[C@@H]2C)C[C@H](O)[C@@H]1O in this test.
Data returned: N

Data request: Look up the recorded call for CC(=[OH+])/C=C(/C)[O-].CC(=[OH+])/C=C(\C)[O-].CC(=[OH+])/C=C(\C)[O-].[Fe] in this test.
Data returned: N

Data request: Look up the recorded call for NC(=O)CCl in this test.
Data returned: N

Next:
Data request: Look up the recorded call for CCCN(CC)CC1COC2(CCC(C(C)(C)C)CC2)O1 (stereo unspecified) in this test.
Data returned: N

Data request: Look up the recorded call for O=C(CCCN1CCC2(CC1)C(=O)NCN2c1ccccc1)c1ccc(F)cc1 in this test.
Data returned: N

Data request: Look up the recorded call for O=[N+]([O-])c1c2ccccc2cc2ccccc12 in this test.
Data returned: N
